TESTED_ON: T1, 5-Helix (HIV-1 group M subtype B, HXB2 (gp41 …, stabilised))
T1 construct: also called designed protein based on HIV-1 gp41
EXPERIMENT: ELISA; competitive phage ELISA, on-phage bivalent scFv: binding to immobilised 5-Helix inhibited by free 5-Helix or free 6-Helix-Fd (concentrations for the trimer); apparent
EXPERIMENTAL_CONTEXT: one partner purified
MEASUREMENT_KIND: IC50 (nM)
The figure you give is taken to be in nM; do not add the unit.

Can you share its IC50? I mean this binder: 25G8 bivalent scFv on phage (scFv, V domains shown) VH: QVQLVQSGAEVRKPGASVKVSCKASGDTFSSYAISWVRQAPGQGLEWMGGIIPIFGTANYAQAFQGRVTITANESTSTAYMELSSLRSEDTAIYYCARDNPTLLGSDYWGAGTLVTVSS VL: DIQMTQSPSTLSASIGDRVTITCRASESIGRSLAWYQQKPGKAPKLLIYRASRLASGAPSRFSGSGSGTDFTLTISSLQPDDFATYYCQQSSTTPLTFGGGTKLEIK
7.2

Now try 25D3 bivalent scFv on phage (scFv, V domains shown) VH: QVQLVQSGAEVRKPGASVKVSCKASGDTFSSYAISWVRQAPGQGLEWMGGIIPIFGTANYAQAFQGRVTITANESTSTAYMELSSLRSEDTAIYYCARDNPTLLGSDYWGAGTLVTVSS VL: DIQMTQSPSTLSASIGDRVTITCRASENIHRRLAWYQQKPGKAPKLLIYSAYSLASGAPSRFSGSGSGTDFTLTISSLQPDDFATYYCQQNSDYPHTFGGGTKLEIK .
17

Now try 25D9 bivalent scFv on phage (scFv, V domains shown) VH: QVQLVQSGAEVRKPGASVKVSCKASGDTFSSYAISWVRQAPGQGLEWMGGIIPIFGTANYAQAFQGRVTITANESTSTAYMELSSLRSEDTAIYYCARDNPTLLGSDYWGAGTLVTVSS VL: DIQMTQSPSTLSASIGDRVTITCRASEDILGRLAWYQQKPGKAPKLLIYRASRLASGAPSRFSGSGSGTDFTLTISSLQPDDFATYYCQQRANYPLTFGGGTKLEIK .
1.7
